System: Klebsiella pneumoniae
Assay: Antibacterial activity against Klebsiella pneumoniae assessed as inhibition of bacterial growth measured after 24 hrs by CLSI based broth microdilution method
Assay type: functional
Measured MIC of individual entries
Write it as a number; the unit µg/mL goes unstated.

CCOP(=O)(OCC)C(Nc1ccc(S(=O)(=O)Nc2onc(C)c2C)cc1)c1cc(O)c2c(c1)C(=O)c1cccc(O)c1C2=O (configuration not stated) ... 256
CCCCOP(=O)(OCCCC)C(Nc1ccc(S(=O)(=O)Nc2onc(C)c2C)cc1)c1cc(O)c2c(c1)C(=O)c1cccc(O)c1C2=O (configuration not stated) ... 16
CCCCOP(=O)(OCCCC)C(Nc1ccc(S(N)(=O)=O)cc1)c1cc(O)c2c(c1)C(=O)c1cccc(O)c1C2=O (configuration not stated) ... 256

Next up:
Reported MIC (Klebsiella pneumoniae) for entry O=C1c2cccc(O)c2C(=O)c2c(O)cc(CO)cc21 [ALOE-EMODIN] is 64

====

Tested on: Klebsiella pneumoniae
Test: Antibacterial activity against Klebsiella pneumoniae assessed as inhibition of bacterial growth measured after 24 hrs by CLSI based broth microdilution method
Assay type: functional
resultType: MIC (µg/mL)
Reply with just the number (in µg/mL).

Here are 6 molecules together with their reported answers.
Cc1cc(NS(=O)(=O)c2ccc(N)cc2)no1 ... 8
COP(=O)(OC)C(Nc1ccc(S(=O)(=O)Nc2cc(C)on2)cc1)c1cc(O)c2c(c1)C(=O)c1cccc(O)c1C2=O (stereo not drawn) ... 32
Nc1ccc(S(N)(=O)=O)cc1 [SULFANILAMIDE] ... 8
NS(=O)(=O)c1ccc(NC(c2cc(O)c3c(c2)C(=O)c2cccc(O)c2C3=O)P(=O)(Oc2ccccc2)Oc2ccccc2)cc1 (stereo not drawn) ... 128
CC(C)OP(=O)(OC(C)C)C(Nc1ccc(S(=O)(=O)Nc2nccs2)cc1)c1cc(O)c2c(c1)C(=O)c1cccc(O)c1C2=O (stereo not drawn) ... 256
CCn1cc(C(=O)O)c(=O)c2cc(F)c(N3CCNCC3)cc21 ... 4

Lab note: measured MIC of O=C1c2cccc(O)c2C(=O)c2c(O)cc(C(Nc3ccc(S(=O)(=O)Nc4nccs4)cc3)P(=O)(Oc3ccccc3)Oc3ccccc3)cc21 (stereo not drawn) was 128

====

Tested on: Enterococcus faecalis
Assay: Antibacterial activity against Enterococcus faecalis assessed as inhibition of bacterial growth measured after 24 hrs by CLSI based broth microdilution method
Type: functional
So basically, if MIC comes in under 60 µg/mL it's class 1, and if it's 60 µg/mL or more it's class 0.

Worked examples follow.
Cc1noc(NS(=O)(=O)c2ccc(NC(c3cc(O)c4c(c3)C(=O)c3cccc(O)c3C4=O)P(=O)(Oc3ccccc3)Oc3ccccc3)cc2)c1C (configuration not stated) ... class 0
CC(C)OP(=O)(OC(C)C)C(Nc1ccc(S(=O)(=O)Nc2nccs2)cc1)c1cc(O)c2c(c1)C(=O)c1cccc(O)c1C2=O (configuration not stated) ... class 0
CCCCOP(=O)(OCCCC)C(Nc1ccc(S(=O)(=O)Nc2nccs2)cc1)c1cc(O)c2c(c1)C(=O)c1cccc(O)c1C2=O (configuration not stated) ... class 0

Exam item: Decide: MIC of CCOP(=O)(OCC)C(Nc1ccc(S(=O)(=O)Nc2ccccn2)cc1)c1cc(O)c2c(c1)C(=O)c1cccc(O)c1C2=O (configuration not stated) strictly below 60 µg/mL?
Marked response: class 0

Exam item: API: query returns whether the molecule falls strictly under 60 µg/mL in MIC. Query: COP(=O)(OC)C(Nc1ccc(S(N)(=O)=O)cc1)c1cc(O)c2c(c1)C(=O)c1cccc(O)c1C2=O (configuration not stated)
Marked response: class 1

Exam item: Consider the molecule CCCCOP(=O)(OCCCC)C(Nc1ccc(S(=O)(=O)Nc2cc(C)on2)cc1)c1cc(O)c2c(c1)C(=O)c1cccc(O)c1C2=O (configuration not stated) . Is its MIC strictly less than 60 µg/mL?
Marked response: class 0

Exam item: Hello, I'm reviewing records and need to know if MIC of CCOP(=O)(OCC)C(Nc1ccc(S(=O)(=O)Nc2onc(C)c2C)cc1)c1cc(O)c2c(c1)C(=O)c1cccc(O)c1C2=O (configuration not stated) is below 60 µg/mL. Could you check?
Marked response: class 0

====

Recorded MIC, one value per entry.
System: Klebsiella pneumoniae
Assay: Antibacterial activity against Klebsiella pneumoniae assessed as inhibition of bacterial growth measured after 24 hrs by CLSI based broth microdilution method
Format: functional
Respond with the bare value in µg/mL.

Cc1cc(NS(=O)(=O)c2ccc(NC(c3cc(O)c4c(c3)C(=O)c3cccc(O)c3C4=O)P(=O)(OC(C)C)OC(C)C)cc2)no1 (configuration not stated) ... 256

Lab book: MIC of O=C1c2cccc(O)c2C(=O)c2c(O)cc(C(Nc3ccc(S(=O)(=O)Nc4ncccn4)cc3)P(=O)(Oc3ccccc3)Oc3ccccc3)cc21 (configuration not stated) noted as 128

Measured MIC of CCOP(=O)(OCC)C(Nc1ccc(S(=O)(=O)Nc2ncccn2)cc1)c1cc(O)c2c(c1)C(=O)c1cccc(O)c1C2=O (configuration not stated) : 0.5

Per the records, this compound ( Nc1ccc(S(=O)(=O)Nc2nccs2)cc1 [SULFATHIAZOLE] ) has MIC equal to 256

compound CCCCOP(=O)(OCCCC)C(Nc1ccc(S(=O)(=O)Nc2cc(C)on2)cc1)c1cc(O)c2c(c1)C(=O)c1cccc(O)c1C2=O (configuration not stated) , MIC observed: 256

Summary for this compound, CCOP(=O)(OCC)C(Nc1ccc(S(=O)(=O)Nc2nccs2)cc1)c1cc(O)c2c(c1)C(=O)c1cccc(O)c1C2=O (configuration not stated) : MIC is 256

Data point: Cc1noc(NS(=O)(=O)c2ccc(NC(c3cc(O)c4c(c3)C(=O)c3cccc(O)c3C4=O)P(=O)(OC(C)C)OC(C)C)cc2)c1C (configuration not stated) ; MIC = 2

====

Test system: Staphylococcus aureus
Assay: Antibacterial activity against Staphylococcus aureus assessed as inhibition of bacterial growth measured after 24 hrs by CLSI based broth microdilution method
Type: functional
Please respond with fulfilled when measured MIC is strictly beneath 100 mg/L, and with not fulfilled in all other cases.

For orientation, consider the following solved cases.
CCCCOP(=O)(OCCCC)C(Nc1ccc(S(N)(=O)=O)cc1)c1cc(O)c2c(c1)C(=O)c1cccc(O)c1C2=O (stereo unspecified) ... not fulfilled
COP(=O)(OC)C(Nc1ccc(S(N)(=O)=O)cc1)c1cc(O)c2c(c1)C(=O)c1cccc(O)c1C2=O (stereo unspecified) ... fulfilled

Exam item: A record lists CCOP(=O)(OCC)C(Nc1ccc(S(=O)(=O)Nc2nccs2)cc1)c1cc(O)c2c(c1)C(=O)c1cccc(O)c1C2=O (stereo unspecified) . Is its MIC below 100 mg/L?
Marked response: fulfilled

Exam item: Bench note: check whether CCOP(=O)(OCC)C(Nc1ccc(S(=O)(=O)Nc2ncccn2)cc1)c1cc(O)c2c(c1)C(=O)c1cccc(O)c1C2=O (stereo unspecified) shows MIC below 100 mg/L
Marked response: not fulfilled

Exam item: MIC under 100 mg/L? Item: COP(=O)(OC)C(Nc1ccc(S(=O)(=O)Nc2onc(C)c2C)cc1)c1cc(O)c2c(c1)C(=O)c1cccc(O)c1C2=O (stereo unspecified)
Marked response: fulfilled

Exam item: Lab log: compare recorded MIC with 100 mg/L; is it strictly lower for CCOP(=O)(OCC)C(Nc1ccc(S(=O)(=O)Nc2onc(C)c2C)cc1)c1cc(O)c2c(c1)C(=O)c1cccc(O)c1C2=O (stereo unspecified) ?
Marked response: not fulfilled

====

Quick reference for MIC among some compounds
Test system: Klebsiella pneumoniae
Assay: Antibacterial activity against Klebsiella pneumoniae assessed as inhibition of bacterial growth measured after 24 hrs by CLSI based broth microdilution method
Type: functional
The reply should read as a number followed by its unit.

Worked examples follow.
COP(=O)(OC)C(Nc1ccc(S(N)(=O)=O)cc1)c1cc(O)c2c(c1)C(=O)c1cccc(O)c1C2=O (stereo not drawn) ... 128 µg/mL
Cc1noc(NS(=O)(=O)c2ccc(NC(c3cc(O)c4c(c3)C(=O)c3cccc(O)c3C4=O)P(=O)(Oc3ccccc3)Oc3ccccc3)cc2)c1C (stereo not drawn) ... 128 µg/mL

In the following, a different compound is considered.
Form field MIC, entry COP(=O)(OC)C(Nc1ccc(S(=O)(=O)Nc2onc(C)c2C)cc1)c1cc(O)c2c(c1)C(=O)c1cccc(O)c1C2=O (stereo not drawn) : 32 µg/mL

====

System: Klebsiella pneumoniae
Assay: Antibacterial activity against Klebsiella pneumoniae assessed as inhibition of bacterial growth measured after 24 hrs by CLSI based broth microdilution method
Assay type: functional
resultType: MIC (µg/mL)
# output: bare number, implied unit µg/mL

Consider the following illustrative entries.
Nc1ccc(S(=O)(=O)Nc2ncccn2)cc1 ... 256
CCCCOP(=O)(OCCCC)C(Nc1ccc(S(=O)(=O)Nc2nccs2)cc1)c1cc(O)c2c(c1)C(=O)c1cccc(O)c1C2=O (stereo unspecified) ... 256
CCOP(=O)(OCC)C(Nc1ccc(S(=O)(=O)Nc2ccccn2)cc1)c1cc(O)c2c(c1)C(=O)c1cccc(O)c1C2=O (stereo unspecified) ... 256
CCOP(=O)(OCC)C(Nc1ccc(S(=O)(=O)Nc2cc(C)on2)cc1)c1cc(O)c2c(c1)C(=O)c1cccc(O)c1C2=O (stereo unspecified) ... 2
COP(=O)(OC)C(Nc1ccc(S(=O)(=O)Nc2nccs2)cc1)c1cc(O)c2c(c1)C(=O)c1cccc(O)c1C2=O (stereo unspecified) ... 2

Field: next compound
The reported MIC of the compound Cc1cc(NS(=O)(=O)c2ccc(NC(c3cc(O)c4c(c3)C(=O)c3cccc(O)c3C4=O)P(=O)(Oc3ccccc3)Oc3ccccc3)cc2)no1 (stereo unspecified) was 128
